Entries and their measured melting point follow.

- MOLECULE: "NC(=O)c1cccc2ncccc12"
  melting point: "228 to 230 °C"
- MOLECULE: "Cc1cc(C)c2c(-c3ccccc3)nc(S)n2n1"
  melting point: "328 to 330 °C"
- MOLECULE: "O=C(O)CC1CCOCC1"
  melting point: "59 to 61 °C"
- MOLECULE: "NS(=O)(=O)c1ccc(NC(=O)OCC(F)(F)F)cc1"
  melting point: "192 to 194 °C"
- MOLECULE: "CCOc1ccc(S(=O)(=O)NN)cc1"
  melting point: "114 to 116 °C"
- MOLECULE: "COC(=O)c1ccc(Br)s1"
  melting point: "60 to 62 °C"
- MOLECULE: "O=[N+]([O-])c1cnc(Cl)nc1NC1CC1"
  melting point: "114 to 116 °C"
- MOLECULE: "CC(Cl)C(=O)N(CCC#N)c1ccccc1 (centres undefined)"
  melting point: "74 to 76 °C"
- MOLECULE: "O=[N+]([O-])c1cccc(Cl)c1S(=O)(=O)Cl"
  melting point: "81 to 83 °C"
- MOLECULE: "O=C(O)C1(Cc2ccc(Cl)cc2)CCCC1"
  melting point: "71 to 73 °C"
- MOLECULE: "COc1ccc(N)cc1NC(=O)c1ccc(Cl)cc1F"
  melting point: "140 to 142 °C"
- MOLECULE: "Cc1ccc(Cl)c(N)c1C(=O)O"
  melting point: "119 to 121 °C"
- MOLECULE: "CN(C1CCCCC1)S(=O)(=O)c1ccc(S)nc1"
  melting point: "175 to 177 °C"
- MOLECULE: "Nc1nnc(SCc2ccc(F)cc2)s1"
  melting point: "145 to 147 °C"
- MOLECULE: "CCOC(=O)c1sc(-c2cccc([N+](=O)[O-])c2)cc1N"
  melting point: "166 to 168 °C"
- MOLECULE: "O=C(O)CCc1cccc(F)c1F"
  melting point: "106 to 108 °C"
- MOLECULE: "Cc1cc(N)n(-c2ncccn2)n1"
  melting point: "203 to 205 °C"
- MOLECULE: "CCOC(=O)c1sc(/N=C/N(C)C)c(C#N)c1C"
  melting point: "151 to 153 °C"
- MOLECULE: "O=C(O)Cc1ccc2c(c1)OCCO2"
  melting point: "54 to 56 °C"
- MOLECULE: "COc1ccccc1C(C)CC(=O)O (centres undefined)"
  melting point: "50 to 52 °C"
- MOLECULE: "O=S(=O)(c1cccc(CO)c1)N1CCOCC1"
  melting point: "96 to 98 °C"
- MOLECULE: "O=C(O)c1ccnc(Cl)c1I"
  melting point: "218 to 220 °C"
- MOLECULE: "NC(=O)c1cccc2cccnc12"
  melting point: "168 to 170 °C"
- MOLECULE: "Nc1cccc2oc(C(F)(F)F)nc12"
  melting point: "49 to 51 °C"
- MOLECULE: "Cc1ccc(C(=O)N(C)C)cc1N"
  melting point: "97 to 99 °C"
- MOLECULE: "CC(=CC(=O)O)c1ccccc1Cl"
  melting point: "75 to 77 °C"
- MOLECULE: "Cc1cc(N2C(=O)c3ccccc3C2=O)ccc1C(=O)O"
  melting point: "271 to 273 °C"
- MOLECULE: "CCNS(=O)(=O)c1ccc2c(c1)NCC2"
  melting point: "112 to 114 °C"
- MOLECULE: "O=Cc1ccc(OCCn2cc(C(=O)O)nn2)c(Cl)c1"
  melting point: "189 to 191 °C"
- MOLECULE: "CC1(C)CCCC(C)(C)N1O"
  melting point: "36 to 38 °C"
- MOLECULE: "O=C(O)c1cnsn1"
  melting point: "167 to 169 °C"
- MOLECULE: "CN(C)c1ccc(Cn2nccc2N)cc1"
  melting point: "60 to 62 °C"
- MOLECULE: "CC(Oc1ccc2c(c1)CCC2)C(=O)O (centres undefined)"
  melting point: "103 to 105 °C"
- MOLECULE: "NC(Cc1ccc(Cl)cc1)=NO"
  melting point: "96 to 98 °C"
- MOLECULE: "CCOC(=O)c1c(-c2ccccc2)oc2ccc(O)cc12"
  melting point: "152 to 154 °C"
- MOLECULE: "Cc1noc(C)c1CSc1ccccc1C(=O)O"
  melting point: "192 to 194 °C"
- MOLECULE: "O=C(O)CNC(=O)c1ccncc1"
  melting point: "230 to 232 °C"
- MOLECULE: "N#CC1(N2CCN(C(=O)CCl)CC2)CCCCC1"
  melting point: "97 to 99 °C"
- MOLECULE: "CNc1ncccc1C(N)=O"
  melting point: "181 to 183 °C"
- MOLECULE: "O=CC1=Cc2cc(Br)ccc2OC1"
  melting point: "103 to 105 °C"
- MOLECULE: "O=C(O)c1ccc(NC(=O)C2CC2)s1"
  melting point: "205 to 207 °C"
- MOLECULE: "CCCc1noc2nc(-c3cccnc3)cc(C(=O)O)c12"
  melting point: "259 to 261 °C"
- MOLECULE: "O=C(O)c1ncoc1-c1cccs1"
  melting point: "200 to 202 °C"
- MOLECULE: "O=C(O)c1ccc(COc2ccc(Cl)cc2)cc1"
  melting point: "201 to 203 °C"
- MOLECULE: "CCn1c(=O)[nH]c2cc(C(=O)O)ccc2c1=O"
  melting point: "347 to 349 °C"
- MOLECULE: "O=C(O)CSc1ncn[nH]1"
  melting point: "154 to 156 °C"
- MOLECULE: "Nc1cccc(I)c1C(=O)O"
  melting point: "130 to 132 °C"
- MOLECULE: "O=C(O)C(Oc1ccc(F)cc1F)c1ccccc1 (centres undefined)"
  melting point: "96 to 98 °C"
- MOLECULE: "NC1(C(=O)O)Cc2ccccc2C1"
  melting point: "254 to 256 °C"
